# Test system: Plasmodium falciparum
# protocol: Antimalarial activity against chloroquine-sensitive Plasmodium falciparum NF54 infected in RBC after 72 hrs by [3H]hypoxanthine incorporation assay in presence of 0.5 % albumax
# Type: functional, organism-based
reported_metric: IC50 (nM)

Take a look at these entries with their results.
The measured IC50 that CCCN(CCC)C(=O)c1cccc(C(=O)N[C@@H](Cc2ccccc2)[C@H](O)CN[C@@H](C)c2ccccc2)c1 showed for Plasmodium falciparum is 21

The measured IC50 that CN1CCN(c2ccc(C(=O)N[C@@H](Cc3ccccc3)[C@H](O)CNCc3ccc(O)c(CN4CCCCC4)c3)cc2)CC1 showed for Plasmodium falciparum is 120

The measured IC50 that CCCN(CCC)Cc1cc(C(C)NC[C@@H](O)[C@H](Cc2ccccc2)NC(=O)c2ccc(N3CCN(C)CC3)cc2)ccc1O (stereo partly specified) showed for Plasmodium falciparum is 89

The measured IC50 that C[C@@H](NC[C@@H](O)[C@H](Cc1ccccc1)NC(=O)c1cccc(S(=O)(=O)N2CCN(C)CC2)c1)c1ccccc1 showed for Plasmodium falciparum is 98

The measured IC50 that C[C@@H](NC[C@@H](O)[C@H](Cc1ccccc1)NC(=O)c1ccc(Nc2ccc(O)c(CN3CCCC3)c2)cc1)c1ccccc1 showed for Plasmodium falciparum is 17

A = CCN(CC)Cc1cc(Nc2ccc(C(=O)N[C@@H](Cc3ccccc3)[C@H](O)CN[C@H](C)c3ccccc3)cc2)ccc1O
B = CC(C)(NC[C@@H](O)[C@H](Cc1ccccc1)NC(=O)c1cccc(-c2ccccc2)c1)c1ccccc1
Query string: Between the entries labelled A and B , which has a larger IC50 value on record? API: response body contains the label of the selected item.
Result string: B
(B: 37 nM, A: 8.3 nM)

a = CCCN(CCC)C(=O)c1cccc(C(=O)N[C@@H](Cc2ccccc2)[C@H](O)CNC(C)(C)c2ccccc2)c1
b = C[C@@H](NC[C@@H](O)[C@H](Cc1ccccc1)NC(=O)c1ccc(C(=O)N2CCCCC2)cc1)c1ccccc1
c = CCCN(CCC)C(=O)c1cccc(C(=O)N[C@@H](Cc2ccccc2)[C@H](O)CNC2Cc3ccccc3C2)c1
d = C[C@@H](NC[C@@H](O)[C@H](Cc1ccccc1)NC(=O)c1cccc(C(=O)N2CCCC2)c1)c1ccccc1
Query string: // smallest IC50 at index 0, largest at the end Field: ranking. Enter the labels in the order requested.
Result string: b, d, a, c

###

# Tested on: Plasmodium falciparum
# protocol: Antimalarial activity against chloroquine-sensitive Plasmodium falciparum NF54 infected in RBC after 24 hrs by [3H]hypoxanthine incorporation assay in presence of 0.5 % albumax
# Type: functional, organism-based
reported_metric: IC50 (nM)

Take a look at these entries with their results.
Record CCN(CC)Cc1cc(CNC[C@@H](O)[C@H](Cc2ccccc2)NC(=O)c2ccc(N3CCN(C)CC3)cc2)ccc1O , field IC50: 408

Record C[C@@H](NC[C@@H](O)[C@H](Cc1ccccc1)NC(=O)c1ccc(Nc2ccncc2)cc1)c1ccccc1 , field IC50: 169

Record CN1CCN(c2ccc(C(=O)N[C@@H](Cc3ccccc3)[C@H](O)CNCc3ccc(O)c(CN4CCCCC4)c3)cc2)CC1 , field IC50: 158

Record CCCN(CCC)Cc1ccc(Nc2ccc(C(=O)N[C@@H](Cc3ccccc3)[C@H](O)CN[C@H](C)c3ccccc3)cc2)cc1O , field IC50: 77

Record Cc1cc(Nc2ccc(C(=O)N[C@@H](Cc3ccccc3)[C@H](O)CN[C@H](C)c3ccccc3)cc2)ccn1 , field IC50: 173

Record CCCN(CCC)Cc1cc(CNC[C@@H](O)[C@H](Cc2ccccc2)NC(=O)c2ccc(N3CCN(C)CC3)cc2)ccc1O , field IC50: 69

Record CCCN(CCC)Cc1cc(C2CCC(NC[C@@H](O)[C@H](Cc3ccccc3)NC(=O)c3ccc(N4CCN(C)CC4)cc3)CC2)ccc1O (stereo partly specified) , field IC50: 20

1 = CCCN(CCC)Cc1cc(C(=O)N[C@@H](Cc2ccccc2)[C@H](O)CN[C@H](C)c2ccccc2)ccc1O
2 = CCN(CC)Cc1cc(C(=O)N[C@@H](Cc2ccccc2)[C@H](O)CN[C@H](C)c2ccccc2)ccc1O
3 = CCN(CC)Cc1ccc(Nc2ccc(C(=O)N[C@@H](Cc3ccccc3)[C@H](O)CN[C@H](C)c3ccccc3)cc2)cc1O
Query string: // smallest IC50 at index 0, largest at the end Field: ranking. Enter the labels in the order requested.
Result string: 3, 1, 2
(3: 65 nM, 1: 151 nM, 2: 380 nM)
